Assay: chemical genetic growth profiling, strain panel (AID 1159580);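 also: tested at 20 µM; growth read once vehicle control cultures reached saturation at 30 °C; 1 = growth at the plate median or of vehicle wells; lower values mean less growth of the strain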
Settings: S. cerevisiae deletion strains, growth OD, locus YJL115W, strain asf1, hits give low values
Out of some 5,500 compounds screened, about 2,000 (36%) were called active. Another 18% or so got no clear call; they are omitted. The list shows a part of the results.
Threshold check on normalized growth: strictly below 1 is condition met; on or above 1 is condition not met.

Solved cases (3 shown):
O=C(O)/C=C/C=C/c1ccccc1 :: condition met
CC(=O)c1c(O)c(C)c(O)c2c1OC1=CC(=O)C(C(C)=O)C(=O)C12C (centres undefined) :: condition met
Oc1c(Br)cc(Br)c2cccnc12 :: condition met

Please find the next molecule below.
Problem: State whether 1 exceeds normalized growth recorded for C/C=C/c1ccc2c(c1)OCO2 .
Result: condition not met

====

Measured normalized growth of individual entries
Assay: chemical genetic growth profiling, strain panel (AID 1159580)
Conditions: S. cerevisiae deletion strains, growth OD, locus YLR418C, strain cdc73, hits give low values
In all, about 5,500 compounds went through this assay and about 2,000 (36%) were called active. Another 18% or so got no clear call; they are omitted. This is one part of the list.
Number, no unit, nothing else.

// solved cases for normalized growth follow
COc1cc(OC)c2c(=O)c(-c3ccccc3)c(C)oc2c1OC :: 1.03
COc1cc2c(c(OC)c1OC)-c1ccc(OC)c(=O)cc1[C@@H](NC(C)=O)CC2 :: 1.06
Oc1c(I)cc(I)c2cccnc12 :: 0.16

Problem: Using the record for COC(=O)[C@]1(C)CC[C@]2(C)CC[C@]3(C)C4=CCc5c(cc(O)c(O)c5C)[C@]4(C)CC[C@@]3(C)C2C1 (stereo partly drawn) , report its normalized growth.
Result: 0.802

====

Measured normalized growth of individual entries
Test: chemical genetic growth profiling, strain panel (AID 1159580)
Details: S. cerevisiae deletion strains, growth OD, locus YEL061C, strain CIN8, hits give low values
Among all 5,500 compounds or so, about 2,000 (36%) were called active. Roughly 18% stayed inconclusive and do not appear here. Some of the results follow.
Number, no unit, nothing else.

O=C(N/N=C\c1cccs1)c1ccccc1CO :: 0.994
Clc1cc(Cl)c(Cl)c(-n2cccc2)c1Cl :: 0.763
Cc1c(-c2ccnc(N)n2)nnn1-c1ccc(Cl)cc1Cl :: 0.959
C[n+]1cccc(C(=O)[O-])c1 :: 1.01
COc1cc(OC)c2c(=O)c(-c3ccccc3)c(C)oc2c1OC :: 1.01
O=S(=O)(N/N=C\c1ccc(Cl)cc1)c1ccc(-c2ccccn2)s1 :: 0.935
CC(C)(C)NS(=O)(=O)NC(C)(C)C :: 1.01
Clc1cc(Cl)cc(-n2cccc2)c1 :: 0.963

Problem: Using the record for NC(=S)N/N=C\c1cccs1 , report its normalized growth.
Result: 0.945

Problem: What do you get for CCOC(=O)N/N=C\c1cccs1 ?
Result: 1

Problem: What do you get for CN1CCN(C=Nc2ncc(C(F)(F)F)cc2Cl)CC1 ?
Result: 1.01

Problem: What do you get for NC(=S)N/N=C\c1ccccc1 ?
Result: 0.902

Problem: What do you get for COc1ccc(-c2c(C)nc3ccc(Cl)cc3c2-c2ccccc2)cc1OC ?
Result: 0.949

====

Experiment: chemical genetic growth profiling, strain panel (AID 1159580)
Conditions: S. cerevisiae deletion strains, growth OD, locus YFL029C, strain CAK1, hits give low values
Screen size: about 5,500 compounds; about 2,000 (36%) were called active. Not shown: some 18% with an inconclusive outcome. The list shows a part of the results.
PROPERTY: normalized growth
Number, no unit, nothing else.

Cc1nn(Cc2ccc(C(=O)Sc3ccc(C(F)(F)F)cn3)o2)c(C)c1Br :: 0.962
O=[N+]([O-])/C=C/c1ccsc1 :: 0.0924
O=C(NCCSCc1cccc(C(F)(F)F)c1)c1ccc(Cl)cc1 :: 0.965

Switching to the query record.
Problem: Using the record for O=C(Nc1ccc(N2CCOCC2)cc1)c1ccc(-n2cccn2)cc1 , report its normalized growth.
Result: 0.988

====

Test: chemical genetic growth profiling, strain panel (AID 1159580)
Details: S. cerevisiae deletion strains, growth OD, locus YNL071W, strain lat1
In all, about 5,500 compounds went through this assay and about 2,000 (36%) were called active. About 18% were inconclusive and are not listed. Cut-off read from the data, not from the text of the source: active = normalized growth mostly below about 0.91 (no sharp cut-off); inconclusive = no clear call, values can overlap the other calls; inactive = mostly above about 0.92. The list shows a part of the results.
Answer with one of the outcomes given here: true (1) = active, false (0) = inactive

Solved cases (5 shown):
CCN(CC)CCOc1ccc(/C(=C(\Cl)c2ccccc2)c2ccccc2)cc1 :: true (1)
COc1ccc(C(Cl)=C(c2ccc(OC)cc2)c2ccc(OC)cc2)cc1 :: false (0)
CC(C)=CCC[C@](C)(O)C1CC=C(C)CC1 (some centres not stated) :: false (0)
CC(=O)Nc1cc([As](=O)(O)O)ccc1O :: false (0)
O=[N+]([O-])c1cc(O)c(O)c([N+](=O)[O-])c1 :: false (0)

Problem: Call for entry COc1cc(C(=O)NCc2ccc(OCCN(C)C)cc2)cc(OC)c1OC :
Result: false (0)

Problem: What do you get for COC(C)(C)CCC[C@H](C)C/C=C/C(C)=C/C(=O)OC(C)C ?
Result: false (0)

Problem: What do you get for CCOP(=S)(OCC)SCn1c(=O)oc2cc(Cl)ccc21 ?
Result: true (1)

Problem: What do you get for Cc1ccsc1/C=C/C1=NCCCN1C ?
Result: false (0)

Problem: What do you get for Nc1ccc(S(=O)(=O)Nc2ccc(Cl)nn2)cc1 ?
Result: false (0)

Problem: What do you get for CN(C)CCOc1ccc(/C(=C(/CCCl)c2ccccc2)c2ccccc2)cc1 ?
Result: true (1)

Problem: What do you get for C=C(C)[C@H]1CC=C(C(=O)O)CC1 ?
Result: false (0)

====

Measured normalized growth of individual entries
Test: chemical genetic growth profiling, strain panel (AID 1159580);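 also: tested at 20 µM; growth read once vehicle control cultures reached saturation at 30 °C; 1 = growth at the plate median or of vehicle wells; lower values mean less growth of the strain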
Conditions: S. cerevisiae deletion strains, growth OD, locus YOR070C, strain gyp1, hits give low values
The campaign covered roughly 5,500 compounds. About 2,000 (36%) were called active. Not shown: some 18% with an inconclusive outcome. Some of the results follow.
Number, no unit, nothing else.

// solved cases for normalized growth follow
C[C@H]1[C@H]2CCC3C4CC=C5C[C@@H](N(C)C)CC[C@]5(C)C4CC[C@@]32CN1C (stereo partly specified) :: 0.993
CS(=O)(=O)CCCCN=C=S :: 0.645
COc1c2c(cc3c1OCO3)CCN(C)C2 :: 1.02

Problem: Using the record for C1CNCCN1 , report its normalized growth.
Result: 1.03

Problem: What do you get for CC(=O)O[C@@H]1CC2C(C)(C)C=CC(=O)[C@]2(C)C2CC[C@@]3(C)[C@H](c4ccoc4)OC(=O)C4OC43[C@@]21C (stereo partly specified) ?
Result: 0.998

Problem: What do you get for Cc1occc(=O)c1O ?
Result: 0.969

====

Assay: chemical genetic growth profiling, strain panel (AID 1159580);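 also: tested at 20 µM; growth read once vehicle control cultures reached saturation at 30 °C; 1 = growth at the plate median or of vehicle wells; lower values mean less growth of the strain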
Conditions: S. cerevisiae deletion strains, growth OD, locus YDR052C, strain DBF4, hits give low values
About 2,000 (36%) of roughly 5,500 compounds were called active. Another 18% or so got no clear call; they are omitted. Some of the results follow.
PROPERTY: normalized growth

CCOC(=O)/C(=N/Nc1c(Cl)cccc1Cl)c1csc(N)n1 :: 0.973 (inactive)
Cn1c(CSCCOc2ccccc2)nnc1SCc1ccc(Cl)cc1Cl :: 0.982 (inactive)

Problem: Using the record for CC(=O)Nc1ccc(/C=C/[N+](=O)[O-])cc1 , report its normalized growth.
Result: 0.98 (inactive)

Problem: What do you get for CC(C)c1ccc(N2C=Nc3ccc(C(C)C)cc3C2)cc1 ?
Result: 1 (inactive)

Problem: What do you get for C=CCOc1ccc(/C=C/[N+](=O)[O-])cc1 ?
Result: 0.0837 (active)

Problem: What do you get for FC(F)(F)c1cccc(NC(=S)Nc2csc(C(F)(F)F)c2-c2ccccc2)c1 ?
Result: 0.987 (inactive)

Problem: What do you get for O=[N+]([O-])c1ccccc1CS(=O)(=O)c1nc2ccccc2s1 ?
Result: 0.87 (active)

====

Measured normalized growth of individual entries
Assay: chemical genetic growth profiling, strain panel (AID 1159580);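 also: tested at 20 µM; growth read once vehicle control cultures reached saturation at 30 °C; 1 = growth at the plate median or of vehicle wells; lower values mean less growth of the strain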
Settings: S. cerevisiae deletion strains, growth OD, locus YPL078C, strain atp4, hits give low values
About 2,000 (36%) of roughly 5,500 compounds were called active. Roughly 18% stayed inconclusive and do not appear here. Some of the results follow.
Number, no unit, nothing else.

CN(C)CCOc1ccc(/C(=C(/CCCl)c2ccccc2)c2ccccc2)cc1 :: 0.0865
CC(=O)Nc1ccc(S(=O)(=O)c2ccc(NC(C)=O)cc2)cc1 :: 1.02
CCN(CC)CCOc1ccc2c(c1)C(=O)c1cc(OCCN(CC)CC)ccc1-2 :: 0.981
O=C(OC1Cc2c(O)cc(O)cc2OC1c1cc(O)c(O)c(O)c1-c1c(C2Oc3cc(O)cc(O)c3CC2OC(=O)c2cc(O)c(O)c(O)c2)cc(O)c(O)c1O)c1cc(O)c(O)c(O)c1 (centres undefined) :: 1.01
O=C(O[C@@H]1Cc2c(O)cc(O)cc2O[C@@H]1c1cc(O)c(O)c(O)c1-c1c([C@H]2Oc3cc(O)cc(O)c3C[C@H]2O)cc(O)c(O)c1O)c1cc(O)c(O)c(O)c1 :: 0.99

Problem: Using the record for Cc1ccsc1/C=C/C1=NCCCN1C , report its normalized growth.
Result: 0.992

Problem: What do you get for O=C(O)c1ccccc1Nc1ccccc1 ?
Result: 0.914

Problem: What do you get for CN(C)CCOC(C)(c1ccccc1)c1ccccn1 (centres undefined) ?
Result: 1

Problem: What do you get for CC(=O)Nc1cc([As](=O)(O)O)ccc1O ?
Result: 0.982
